system_name: Nuclear receptor subfamily 5 group A member 2 (Homo sapiens) (UniProt O00482)
Sequence (O00482 whole entry, looked up): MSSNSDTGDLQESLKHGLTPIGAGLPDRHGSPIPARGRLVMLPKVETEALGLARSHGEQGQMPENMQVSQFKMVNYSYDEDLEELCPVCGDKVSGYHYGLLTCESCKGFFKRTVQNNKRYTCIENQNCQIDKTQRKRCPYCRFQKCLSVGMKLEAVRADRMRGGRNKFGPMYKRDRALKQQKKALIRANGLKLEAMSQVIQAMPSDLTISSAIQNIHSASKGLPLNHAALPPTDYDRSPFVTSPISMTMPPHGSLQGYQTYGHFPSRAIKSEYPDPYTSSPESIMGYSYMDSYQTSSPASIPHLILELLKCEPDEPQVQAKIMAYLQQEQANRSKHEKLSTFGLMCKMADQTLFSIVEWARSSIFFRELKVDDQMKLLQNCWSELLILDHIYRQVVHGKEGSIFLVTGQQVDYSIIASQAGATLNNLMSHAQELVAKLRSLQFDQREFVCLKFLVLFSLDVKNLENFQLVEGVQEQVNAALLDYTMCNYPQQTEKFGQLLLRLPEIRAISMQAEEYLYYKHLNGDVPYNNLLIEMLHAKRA
assay_protocol: LRH-1 (NR5A2) inverse agonists, retest, confirmation, cell-based, luminescence (AID 651613);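 note: HEK293T cells co-transfected with LRH-1 and StAR promoter luciferase reporter; 0% = vehicle wells and 100% = parental cells lacking receptor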
conditions_used: cell-based LRH-1 luciferase reporter, inverse agonism; at 3.6 µM; stronger effect = higher value
Here, each record is paired with measured inhibition data.
Enter your answer as a number in %; do not include the unit.

Worked set:
- COC(=O)CC1(C(=O)OC)Oc2ccc(Br)cc2C(=O)N1c1cc(Cl)c(Cl)cc1Cl (stereo not given): 58.5
- O=C(CN1CCN(c2ccc([N+](=O)[O-])cc2)CC1)c1ccccc1: 60.3
- COc1ccc(C2=CC(=O)OC3(CCCC3)O2)cc1: 60.5
- O=C(CSc1nnnn1C1CC2CCC1C2)Nc1ccnc2ccccc12 (stereo not given): 61

Consider now this further compound.
State recorded inhibition with Nuclear receptor subfamily 5 group A member 2 (Homo sapiens) (UniProt O00482), entry O=C(NC1CCC(CC2CCC(NC(=O)C(Cl)Cl)CC2)CC1)C(Cl)Cl (stereo not given) , no comment.
58.2

Data origin, for the record: PubChem BioAssay
